Experiment: chemical genetic growth profiling, strain panel (AID 1159580);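 further: tested at 20 µM; growth read once vehicle control cultures reached saturation at 30 °C; 1 = growth at the plate median or of vehicle wells; lower values mean less growth of the strain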
Details: S. cerevisiae deletion strains, growth OD, locus YER155C, strain BEM2 (second series), active compounds read low
The campaign covered roughly 5,500 compounds. About 2,000 (36%) were called active. Roughly 18% stayed inconclusive and do not appear here. Some of the results follow.
Catalogue of normalized growth readings, one per entry.

Some molecules with known normalized growth results, for comparison:
MOLECULE	PARAMETER	VAL
CCCCCCCCCCCC1=C(O)C(=O)C=C(O)C1=O	normalized growth	0.615 (active)
O=C1C=C2C(=CCOC2O)O1 (configuration not stated)	normalized growth	0.303 (active)
CCC(N)C(O)c1ccc(O)c(O)c1 (configuration not stated)	normalized growth	0.979 (inactive)
NC(=O)c1ncn([C@@H]2O[C@H](CO)[C@@H](O)[C@H]2O)n1	normalized growth	0.989 (inactive)
Cc1[nH]ccc2c1[nH]c1cc(=O)ccc12	normalized growth	0.973 (inactive)
CC(C)(C)NCC(O)c1cc(Cl)c(N)c(Cl)c1 (configuration not stated)	normalized growth	1.01 (inactive)
COc1cccc2c(C)cc(=O)[nH]c12	normalized growth	0.786 (active)
CC(C)c1c(O)c(-c2cc3c(c(C(C)C)c2O)CCC2C(C)(C)CCC[C@]32C)cc2c1CCC1C(C)(C)CCC[C@]21C (some centres not stated)	normalized growth	0.992 (inactive)

get_value(item= CC(=O)Oc1ccc2c(c1C(C)C)CCC1C(C)(C)CCC[C@]21C (some centres not stated) , readout=normalized growth) returns 1.04 (inactive)

get_value(item= `CC/C(=C(/CC)c1ccc(O)cc1)c1ccc(O)cc1` , readout=normalized growth) returns 1.03 (inactive)

get_value(item= OCC(O)C(O)C(O)C(O)C(O)CO (configuration not stated) , readout=normalized growth) returns 0.989 (inactive)

get_value(item= CC(C1OC(C)(C)C(O)C1O)[C@@H]1CC[C@]2(C)C3=CCC4C(C)(C)C(=O)CC[C@]4(C)C3CC[C@@]12C (some centres not stated) , readout=normalized growth) returns 0.924 (inactive)

get_value(item= `CCOC(=O)c1c(C)cc(O)cc1O` , readout=normalized growth) returns 0.857 (active)

get_value(item= COc1ccc2c(c1)CCC1C2CCC2(C)C1C[C@@H](O)C2O (some centres not stated) , readout=normalized growth) returns 0.715 (active)

get_value(item= C[N+](C)(C)CC(O)CC(=O)O (configuration not stated) , readout=normalized growth) returns 0.965 (inactive)

get_value(item= CC(C)c1c(O)ccc2c1CCC1C(C)(C)CCC[C@]21C (some centres not stated) , readout=normalized growth) returns 0.925 (inactive)

get_value(item= CC(C)c1c(O)ccc2c1CCC1[C@@](C)(CO)CCC[C@]21C (some centres not stated) , readout=normalized growth) returns 1.03 (inactive)

get_value(item= OC1CC2CCCC(C1)N2Cc1ccccc1 (configuration not stated) , readout=normalized growth) returns 0.989 (inactive)

get_value(item= `O=C(O)C1=C[C@@H](O)[C@@H](O)[C@H](O)C1` , readout=normalized growth) returns 0.958 (inactive)

get_value(item= `Cc1cc(OC(=O)c2c(C)cc(O)cc2O)cc(O)c1C(=O)O` , readout=normalized growth) returns 0.966 (inactive)

get_value(item= C[C@]12CCC3c4ccc(O)cc4CCC3C1C[C@@H](O)[C@@H]2O (some centres not stated) , readout=normalized growth) returns 1.02 (inactive)

get_value(item= CCCC(C)(COC(N)=O)COC(=O)NC(C)C (configuration not stated) , readout=normalized growth) returns 1.04 (inactive)

get_value(item= CO[C@@]1(NC(=O)C(C(=O)O)c2ccc(O)cc2)C(=O)N2C(C(=O)O)=C(CSc3nnnn3C)CO[C@@H]21 (some centres not stated) , readout=normalized growth) returns 0.993 (inactive)

get_value(item= `CCOC(=O)c1c(C)cc(OC)cc1O` , readout=normalized growth) returns 0.609 (active)

get_value(item= COc1ccc2c(c1)CCC1C2CC[C@@]2(C)C1CC[C@@H]2O (some centres not stated) , readout=normalized growth) returns 0.686 (active)

get_value(item= CCCCCCC(C)OC(=O)COc1ccc(Cl)cc1Cl (configuration not stated) , readout=normalized growth) returns 0.989 (inactive)

get_value(item= `COC(=O)c1c(C)cc(O)cc1O` , readout=normalized growth) returns 0.995 (inactive)
